Where do these numbers come from? They come from the supplement of paper PMC10724198.

Please go through the items and note down their protein stability index.
System: Saccharomyces cerevisiae;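 further: PSI is a weighted mean of sequencing reads over stability bins, variants kept only with over 10 reads, mCherry proximal and sfGFP distal, peptide attached via GGGS linker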
Test: protein stability index of tFT-peptide fusion (C-terminal peptide) (PSI (0-1 scale)); higher = more stable (slower turnover)
Details: genetic background: wild type; temperature: 30 C
Numbers only.

Go through the list and state protein stability index for each entry.
1. GGRGRWEMVGRT
2. IVHIKRVLGNAA
3. SPPPILPSSPSS
4. PLSPSCTLPPRP

1. 0.7
2. 0.636
3. 0.698
4. 0.674

// each sequence listed below needs its protein stability index
1. SCLRVYFSVVVS
2. WGCIFWFFDVRV
3. LVLLFGIGTTHW
4. IYPPVSVTNLLV
5. PPPLSPPLPFFV
6. LLLCVVLVSVFG

1: 0.359; 2: 0.386; 3: 0.65; 4: 0.357; 5: 0.666; 6: 0.18
